Value source: PubChem BioAssay AID1117264

Experimental system: RNA-editing ligase 1, mitochondrial (Trypanosoma brucei brucei) (UniProt P86926)
Sequence (P86926 whole entry, looked up): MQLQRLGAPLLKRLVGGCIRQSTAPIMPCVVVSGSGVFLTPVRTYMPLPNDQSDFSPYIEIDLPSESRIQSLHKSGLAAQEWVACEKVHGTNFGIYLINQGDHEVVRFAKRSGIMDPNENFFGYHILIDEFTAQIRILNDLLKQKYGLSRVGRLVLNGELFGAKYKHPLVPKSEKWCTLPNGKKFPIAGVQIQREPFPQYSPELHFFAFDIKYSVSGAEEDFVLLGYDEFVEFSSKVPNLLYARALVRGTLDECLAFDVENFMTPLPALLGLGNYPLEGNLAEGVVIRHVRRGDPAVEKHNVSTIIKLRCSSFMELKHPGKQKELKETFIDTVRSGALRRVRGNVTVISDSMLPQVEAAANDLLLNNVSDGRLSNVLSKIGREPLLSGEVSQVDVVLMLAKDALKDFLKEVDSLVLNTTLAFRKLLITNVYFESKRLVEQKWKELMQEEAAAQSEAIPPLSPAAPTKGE
Assay info: TbREL1 RNA ligase inhibitors, primary screen, biochemical, FRET fluorescence (AID 1117264);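 note: 0% = plate median of test wells and 100% = NSC42067 control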
Measurement conditions: TbREL1 RNA ligation, at 9.66 µM, hits give high values
Out of some 89,000 compounds screened, about 440 (0.49%) were called active. This excerpt belongs to a sample that is enriched for actives.
Measured endpoint: inhibition (%)
Write down the numeric answer in % and omit the unit.

For orientation, consider the following solved cases.
1. C[C@H](NC(=O)c1[nH]cnc1C(=O)Nc1nccs1)c1ccccc1: 2.49
2. Nc1c(Cl)cc(-c2csc(N3CCCC3c3nc4cc(Cl)c(Cl)cc4n3CCOCCO)n2)cc1Cl (stereo not given): -4.69

// query Record request: inhibition value, item `CCOc1cc2[nH]c(=O)n(Cc3ccc(C(=O)NCCCN4CCCC4=O)cc3)c(=O)c2cc1OCC`
// result -3.44

// query Record request: inhibition value, item `CN(C)/C(=N\OC(=O)c1ccccc1)c1nonc1N`
// result 0.81
